# method: qHTS for Stage-Specific Inhibitors of Vaccinia Orthopoxvirus: mCherry Reporter Primary qHTS; note: nearly all actives have a fitted effect of over 35% in size
# condition: Vaccinia virus mCherry reporter infection, fluorescence; series mostly up to 36.5 µM
In all, about 310,000 compounds went through this assay and about 1,900 (0.61%) were called active. Roughly 8% stayed inconclusive and do not appear here. Calls come from the whole dose curve; tested in A549 cells. This excerpt belongs to a sample that is enriched for actives.
Outcome codes: active, inactive

compound: CCOC(=O)c1c(NC(=S)SC)sc(C(=O)N2CCc3ccccc3C2)c1C
assigned-label: inactive
--
compound: COc1ccc(NC(=O)c2cnc(NS(=O)(=O)c3ccccc3)nc2)cc1
assigned-label: inactive
--
compound: CC(C)Oc1c(Br)cc(Br)cc1/C=N/NC(N)=S
assigned-label: active
--
compound: CC1(C)OC(=O)C2=C(C[C@@H](C3CC3)O[C@H]2CCc2cccc(Cl)c2)O1
assigned-label: inactive
--
compound: CCCN(CCC)S(=O)(=O)c1cc2c(cc1Br)CCN2C(=O)CC
assigned-label: inactive
--
compound: CC(=O)C1=CCC(c2ccccc2)N(S(=O)(=O)c2ccc(C)cc2)C1 (stereo not given)
assigned-label: inactive
--
compound: COc1ccc(CNC(=O)C[C@H]2C[C@H](C(=O)N3CCOCC3)[C@@]3(CCC4CCCC4)c4[nH]c5ccc(Cl)cc5c4CCN3C2=O)cc1OC
assigned-label: inactive
--
compound: CN(C)C(=O)CCc1ccc2c3c([nH]c2c1)[C@]1(CCC2CCCC2)[C@@H](C(=O)N2CCOCC2)C[C@H](CC(=O)NCc2ccco2)C(=O)N1CC3
assigned-label: inactive
--
compound: CC1(C(=O)Nc2cccnc2)Cc2c(-c3ccccc3)ccnc2O1 (stereo not given)
assigned-label: inactive
--
compound: Cc1ccccc1S(=O)(=O)N1[C@@H](c2cccc(Cl)c2)C(C(=O)OC(C)(C)C)=CC[C@H]1c1ccc(Cl)cc1
assigned-label: inactive
--
compound: CC1(C(=O)NCC2CCOCC2)Cc2c(-c3cccc(C(N)=O)c3)ccnc2O1 (stereo not given)
assigned-label: inactive
--
compound: CCC1NC(=O)c2cccnc2-n2c1nc1ccc(C)cc1c2=O (stereo not given)
assigned-label: inactive
--
compound: Cc1cccc(-n2c(C)cc(/C=N/NC(N)=S)c2C)c1
assigned-label: inactive
--
compound: CC(NC(=O)CSc1nc2c(cc1C#N)CN(C)CC2)c1ccccc1 (stereo not given)
assigned-label: active
--
compound: CN(O)C(=S)c1ccccc1
assigned-label: active
--
compound: O=C(CC(CC(=O)c1ccccc1)c1ccco1)c1ccccc1
assigned-label: inactive
--
compound: O=C(C[C@H]1C[C@H](C(=O)N2CCOCC2)[C@@]2(CCC3CCCC3)c3[nH]c4ccc(Cl)cc4c3CCN2C1=O)NCc1ccco1
assigned-label: active
--
compound: NC(=S)N/N=C/c1coc2cc(Cl)ccc2c1=O
assigned-label: inactive
--
compound: C(=Nc1ccc(/C=C/c2ccnc3ccccc23)cc1)Nc1ccc(/C=C/c2ccnc3ccccc23)cc1
assigned-label: inactive
--
compound: CCOC(=O)[C@]12CCC=C1N(CCC1=CCCCC1)C(=O)[C@H](CC(=O)NCc1ccc(C)o1)C2
assigned-label: inactive

====

# method: qHTS for Stage-Specific Inhibitors of Vaccinia Orthopoxvirus: mCherry Reporter Primary qHTS; note: nearly all actives have a fitted effect of over 35% in size
# condition: Vaccinia virus mCherry reporter infection, fluorescence; series mostly up to 36.5 µM
The campaign covered roughly 310,000 compounds. About 1,900 (0.61%) were called active. Inconclusive results (about 8%) are left out. Calls follow the shape of the full dose curve; tested in A549 cells. The sample as a whole holds a higher share of actives than the screen did.
Outcome codes: yes (active), no (inactive)

compound: Cc1ccc(S(=O)(=O)N2CCN(c3ncnc4ccccc34)CC2)cc1
assigned-label: no

compound: CCCCCNC(=O)C(c1ccc(OC)cc1)n1c(=O)c(-c2ccccc2)nc2ccccc21 (stereo not given)
assigned-label: no

compound: CCOC(=O)C1CCCN(C(=O)c2cc(-c3cccs3)oc2C)CC1 (stereo not given)
assigned-label: no

compound: Cc1ccc(C)c(S(=O)(=O)N2CCN(c3ncnc4sccc34)CC2)c1
assigned-label: yes

compound: Cc1ccc(C)c(S(=O)(=O)n2nc(C)c(S(=O)(=O)N3CCC(C)CC3)c2C)c1
assigned-label: no

compound: COc1ccc(/C=C/C(=O)c2ccc(NS(=O)(=O)c3ccc(C)cc3)cc2)cc1O
assigned-label: yes

compound: COc1ccc(C(=O)Oc2cc(/C=N/NS(=O)(=O)c3ccc(C)cc3)ccc2OC)cc1
assigned-label: no

compound: O=C(Nc1ccc(Cl)cn1)c1ccccc1-c1ccccc1
assigned-label: no

compound: COc1ccc(NS(=O)(=O)c2ccc(NC(=S)NC(=O)/C=C/c3ccc(C)cc3)cc2)nn1
assigned-label: no

compound: COc1ccc(C(=O)N2CCCCC2c2cc(C(=O)Nc3ccccc3)no2)cc1 (stereo not given)
assigned-label: no

====

# method: qHTS for Stage-Specific Inhibitors of Vaccinia Orthopoxvirus: mCherry Reporter Primary qHTS; note: nearly all actives have a fitted effect of over 35% in size
# condition: Vaccinia virus mCherry reporter infection, fluorescence; series mostly up to 36.5 µM
Out of some 310,000 compounds screened, about 1,900 (0.61%) were called active. Not shown: some 8% with an inconclusive outcome. Calls come from the whole dose curve; tested in A549 cells. The sample holds actives, similar compounds and a random draw of the others, so the mix is not that of the screen.
Outcome codes: active, inactive

compound: COc1ccc(-c2cc(C(=O)Nc3ccccc3O)c3ccccc3n2)cc1
assigned-label: inactive
//
compound: COc1c(O)ccc2c1CN1CCc3cc4c(cc3C1C2)OCO4 (configuration not stated)
assigned-label: active
//
compound: Cc1ccnc(NC(=O)C2CCN(S(=O)(=O)c3c(C)c(C)cc(C)c3C)CC2)c1
assigned-label: active
//
compound: CCc1c(-c2ccc(F)cc2)ncn1Cc1cccc(-c2ccccc2)c1
assigned-label: inactive
//
compound: CCCCC[C@@H]1C=C(C(=O)OCC)[C@H](c2ccccc2)N1S(=O)(=O)c1ccc(C)cc1
assigned-label: inactive
//
compound: CCOc1ccc(/C=N/NC(N)=S)cc1
assigned-label: active
//
compound: CCCCCCCCN1C(=O)[C@H](CC(=O)NCC23CC4CC(CC(C4)C2)C3)C[C@@]2(C(=O)OC)CCCCC=C12
assigned-label: inactive
//
compound: CC(C)C1N=C2c3ccccc3N=C(SCC(=O)c3ccc(O)c(O)c3)N2C1=O (configuration not stated)
assigned-label: active
//
compound: O=C(CSc1nnc(CNC(=O)c2ccc(F)cc2)o1)Nc1ccc2c(c1)OCO2
assigned-label: inactive
//
compound: Cc1ccc(-c2nnc(SCc3ccccc3C)o2)cc1
assigned-label: inactive
//
compound: O=C(CSc1cccc2cccnc12)N/N=C/c1cccnc1
assigned-label: active
//
compound: COc1cccc(-c2cnc3c(NC(C)=O)cc(-c4cccc(NC(C)=O)c4)cn23)c1
assigned-label: inactive
//
compound: CC(=O)Nc1ccc(C=Cc2ccc([N+](=O)[O-])cc2)cc1
assigned-label: inactive
//
compound: O=C(Cc1c(F)cccc1Cl)Nc1ncc([N+](=O)[O-])s1
assigned-label: inactive
//
compound: c1ccc(-c2nccc(-c3ccc(-n4cnc5ccccc54)cc3)n2)nc1
assigned-label: active
//
compound: O=C(Nc1ccccn1)C1CCN(S(=O)(=O)c2ccccc2)CC1
assigned-label: inactive
//
compound: CC(C)OC(=O)c1ccc(NCc2cc(O)ccc2O)cc1Cl
assigned-label: active
//
compound: CN(C(=N)N)c1ccc(/C=C2\C=Cc3ccccc32)cc1
assigned-label: inactive
//
compound: CC(C)NC(=O)c1ccc(Cl)cc1Cl
assigned-label: inactive
//
compound: COc1ccc(C(O)c2nc(-c3ccc4c(c3)OCO4)cs2)cc1 (configuration not stated)
assigned-label: inactive
//
compound: CC(C)=C(NC(=O)c1ccccc1)C(=O)N/N=C(\C)c1ccccc1O
assigned-label: inactive
//
compound: CCCCCCCNc1ccc(/C=C/c2ccnc3ccccc23)cc1
assigned-label: inactive
//
compound: COc1cccc(-c2cc3nc(NCc4ccccc4OC)n(C)c(=O)c3s2)c1
assigned-label: inactive
//
compound: COc1cccc(CNc2nc(NCc3cccs3)nc3ccsc23)c1
assigned-label: inactive
//
compound: Cc1cc2ccccn2c1C(C[N+](=O)[O-])c1c(F)cccc1Cl (configuration not stated)
assigned-label: active
//
compound: CC(OC(=O)c1ccc(Cl)cc1O)C(=O)NCCC1=CCCCC1 (configuration not stated)
assigned-label: inactive
//
compound: CN1CCc2cc3c(cc2[C@H]1[C@@H]1OC(=O)c2c1ccc1c2OCO1)OCO3
assigned-label: inactive
//
compound: Cc1ccc(CNC(=O)CSC2=Nc3ccccc3C3=NC(C)C(=O)N23)cc1 (configuration not stated)
assigned-label: inactive
//
compound: CCNc1nc(NCC)nc(N/N=C/c2ccc(O)c(OC)c2)n1
assigned-label: inactive
//
compound: CC(C)Sc1nc(N)nc2c1ncn2C1OC(CO)C(O)C1O (configuration not stated)
assigned-label: inactive
//
compound: COC(=O)c1cc(-c2cccs2)nc2ccccc12
assigned-label: inactive
//
compound: Cc1cccc(N2CCN(c3ccc(NC(=O)/C=C\C(=O)O)cc3)CC2)c1
assigned-label: inactive
//
compound: C/C(=N\NC(=O)c1ccoc1C)c1ccccc1O
assigned-label: active
//
compound: CCOC(=O)[C@]12CCCC=C1N(Cc1ccc3c(c1)OCO3)C(=O)[C@H](CC(=O)N1CCN(C(=O)c3ccco3)CC1)C2
assigned-label: inactive
//
compound: CCOC(=O)N/N=C/c1cccnc1
assigned-label: inactive
//
compound: C=CC(=O)Nc1ccc(Nc2ccnc(Nc3ccc(N4CCN(C)CC4)cc3)n2)cc1
assigned-label: active
//
compound: CCOc1ccc(-c2cc(C(=O)N/N=C/c3ccc(O)cc3)c3ccccc3n2)cc1
assigned-label: active
//
compound: CC(C)(C)Nc1nc(-c2ccccn2)nc2ccccc12
assigned-label: inactive
//
compound: COC(=O)N/N=C/c1ccc(/C=N/NC(=O)OC)cc1
assigned-label: inactive
//
compound: CC1(C(=O)Nc2ccc3c(c2)OCCO3)CCN1C(=O)Cc1cc(F)ccc1F (configuration not stated)
assigned-label: inactive
//
compound: O=C(CNC(=O)c1cccnc1)N/N=C/c1cccnc1
assigned-label: inactive
//
compound: CN1CCN(c2ccc(NC(=O)c3ccccc3)cc2)CC1
assigned-label: inactive
